meta.source: the supplement of paper PMC6555819

The following sequences are listed with their measured PBM binding z-score values.
Test system: LXRa homodimer (NR concentration 270 nM)
EXPERIMENTAL_DETAILS: PBM binding z-score (relative to random genomic background probes); higher = stronger binding; sequences stand for … in GC…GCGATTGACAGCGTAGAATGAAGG

SEQUENCE: CTCGAAAAGTCGGTTGAGGTGAGTATACGGATAA
PBM binding z-score: -0.319
//
SEQUENCE: CGTCCAAGGTGATAGGAGGTCAGTGAAGACAGAT
PBM binding z-score: 0.6
//
SEQUENCE: CGAACTAGGTCAAGAGGTCAAAGTCCGCTTCCCG
PBM binding z-score: 6.49
//
SEQUENCE: CCTTACGGGTCACTCACAGGTTATAGCATTTGGA
PBM binding z-score: 0.653
//
SEQUENCE: TTACCAAGGTGAAAGGTCGTGGATGCACGCCTTG
PBM binding z-score: -0.0355
//
SEQUENCE: CCGCCTAGGTCAGGGCCAGTATAGGAGGAACGTT
PBM binding z-score: -0.253
//
SEQUENCE: GCTAGCAGGCCATTTGGATCACTCAATGACGGGC
PBM binding z-score: -0.841
//
SEQUENCE: ACTATTAGTTGACTTAGGGGAACCGATACGACGC
PBM binding z-score: 0.277
//
SEQUENCE: ATATGTAGGTTACATCCGGCTCATTCAGGCTATG
PBM binding z-score: 0.223
//
SEQUENCE: AGAATGAGGTTAAGATCAGGGCAACAGAATACAT
PBM binding z-score: 0.329
//
SEQUENCE: ATATGTAGGTTATCCGGTCATTCAGTTTGCGCAT
PBM binding z-score: 4.12
//
SEQUENCE: CAAACTCGGTCACCGGAAGGTCAAAGTCCGCATG
PBM binding z-score: 4.93
//
SEQUENCE: CGTCCAAAGTCAATGCTAGGTCAGTGAAAGCATT
PBM binding z-score: 0.816
//
SEQUENCE: TCTCAGAGGACACGAAGGTCAGAGCTTTCCAGAG
PBM binding z-score: 0.407
//
SEQUENCE: TCTGGTAGATCAATAGAGGTTAAGAAAGTGCGCT
PBM binding z-score: 0.62
//
SEQUENCE: TCTAGTTGTTCAAAGGTCACACACTCGAAATGCG
PBM binding z-score: 4.39

---

Test system: PXR homodimer (NR concentration 270 nM)
EXPERIMENTAL_DETAILS: PBM binding z-score (relative to random genomic background probes); higher = stronger binding; sequences stand for … in GC…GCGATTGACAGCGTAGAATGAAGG
Given measured PBM binding z-score, output y if it is greater than or equal to -0.01 and n if not.

SEQUENCE: GCAGACAGGTGAAACGCAGGTAACCCAGGGTGGC
TESTED_TARGET: PXR homodimer (NR concentration 270 nM)
DISCRETE_LABEL: n
//
SEQUENCE: CCTGCTAGGTCATGGACAGCTAATCTACAGTATG
TESTED_TARGET: PXR homodimer (NR concentration 270 nM)
DISCRETE_LABEL: n
//
SEQUENCE: CGTCCAGGGTCATAGGAGGTCAGTGAAGACAGAT
TESTED_TARGET: PXR homodimer (NR concentration 270 nM)
DISCRETE_LABEL: y
//
SEQUENCE: TCTTGTAGATCAAAGGTTAAGAAAGCCGAAGCCT
TESTED_TARGET: PXR homodimer (NR concentration 270 nM)
DISCRETE_LABEL: n
//
SEQUENCE: CATATAGGGTCAGCTAGGCCAGAGTAGGGACGGC
TESTED_TARGET: PXR homodimer (NR concentration 270 nM)
DISCRETE_LABEL: n
